Hey, just so you know, these numbers are from patent US5137905A.

# tested-on: CNS cholinergic receptor
# settings: tritiated quinuclidine benzylate (QNB); read-out: CNS Cholinergic Receptor Binding Assays K1 QNB
measurement-kind: pKi
// field semantics: pKi = negative decimal log of concentration (mol/L)

compound="CC(C#CCn1ccnc1)N1CCN(C)C1=O (centres unmarked)" data_value=5.40
compound="CC(C)(C)OC(=O)N1CCC[C@@H]1C#CCN1CCCC1 [Compound 49A]" data_value=6.37
compound=CC(C)(C)OC(=O)N1CCN(CC#CCN2CCCC2)C1=O data_value=5.66
compound=CC1(C)CNC(=O)N1CC#CCN1CCCC1 data_value=6.00
compound="CC1CN(C(=O)OC(C)(C)C)C(=O)N1CC#CCN1CCCC1 (centres unmarked)" data_value=6.09

pKi recorded for this compound, CN1CCCN(CC#CCN2CCCC2)C1=O , is 5.80

* * *

Reported values of pKi for individual entries
# tested-on: CNS cholinergic receptor
# settings: tritiated quinuclidine benzylate (QNB); read-out: CNS Cholinergic Receptor Binding Assays K1 QNB
pKi: −log10 of the molar value.

Record excerpt, results attached:
compound="Cc1cncn1CC#CCN1CCNC1=O [Compound 27]" measurement_kind=pKi data_value="< 5.00"
compound="CN(C)CC#CCN1CCN(C)C1=O [Compound 10]" measurement_kind=pKi data_value=6.74
compound="CC(=O)N1CCC[C@H]1C#CCN(C)C [Compound 51D]" measurement_kind=pKi data_value="< 5.00"
compound="N#CN1CCC[C@@H]1C#CCN1CCCC1 [Compound 51I]" measurement_kind=pKi data_value="< 5.00"
compound="C(#C[C@H]1CCCN1)CN1CCCC1 [Compound 50A]" measurement_kind=pKi data_value=5.32

pKi recorded for this compound, CN(C)CC#C[C@@H]1CCCN1 [Compound 50D] , is < 5.00

pKi recorded for this compound, CC(=O)N1CCC[C@@H]1C#CCN(C)C [Compound 51C] , is < 5.00

pKi recorded for this compound, C(#C[C@@H]1CCCN1)CN1CCCC1 [Compound 50B] , is < 5.00

pKi recorded for this compound, CCN(CC)CC#CCN1CCN(C)C1=O [Compound 24] , is < 5.00

pKi recorded for this compound, CNC(=O)N1CCC[C@@H]1C#CCN1CCCC1 [Compound 51G] , is < 5.00

pKi recorded for this compound, O=C1N(CC#CCN2CCCC2)CCN1c1ccccc1 [Compound 20] , is 6.77

* * *

# Tested on: HCl-induced writhing
# measurement-notes: HCl writhing protection (analgesic activity)
# Assay type: in vivo, CF1 mice
# settings: Mus musculus, sc; ED50; s.c. in CF1 mice, 30 min before i.p. 0.15% HCl; read-out: CNS Id (ED50 mg/kg) HCl Writh. Protect
# Protocol: For determination of analgesic activity, the test compound was injected subcutaneously into a group of four CF1 mice. Thirty minutes later the mice were injected i.p. with 0.15% HCl, 10 ml./kg. Mice were then placed in plastic boxes and observed for fifteen minutes to record the number of animals failing to writhe.
Reported values of ED50 for individual entries
Report the figure in mg/kg without appending any unit label.

Record excerpt, results attached:
compound="CN1C(=O)N(CC#CCN2CCCC2)CC1(C)C [Compound 13]" tested_on="HCl-induced writhing" measurement_kind=ED50 unit_info=mg/kg data_value=12.5
compound="CC(C)(C)OC(=O)N1CCN(CC#CCN2CCCC2)C1=O [Compound 8]" tested_on="HCl-induced writhing" measurement_kind=ED50 unit_info=mg/kg data_value=25
compound="Cn1ccn(CC#CCN2CCCC2)c1=O [Compound 36]" tested_on="HCl-induced writhing" measurement_kind=ED50 unit_info=mg/kg data_value=1.3
compound="N#CN1CCC[C@@H]1C#CCN1CCCC1 [Compound 51I]" tested_on="HCl-induced writhing" measurement_kind=ED50 unit_info=mg/kg data_value=25
compound="CC1(C)CNC(=O)N1CC#CCN1CCCC1 [Compound 16]" tested_on="HCl-induced writhing" measurement_kind=ED50 unit_info=mg/kg data_value=25

Proceeding to the next compound to report its ED50.
ED50 recorded for this compound, CC(C)(C)OC(=O)N1CCC[C@@H]1C#CCN1CCCC1 [Compound 49A] , is 13
